- assaySystem: UniProt:P21917
- Sequence (P21917 1-419): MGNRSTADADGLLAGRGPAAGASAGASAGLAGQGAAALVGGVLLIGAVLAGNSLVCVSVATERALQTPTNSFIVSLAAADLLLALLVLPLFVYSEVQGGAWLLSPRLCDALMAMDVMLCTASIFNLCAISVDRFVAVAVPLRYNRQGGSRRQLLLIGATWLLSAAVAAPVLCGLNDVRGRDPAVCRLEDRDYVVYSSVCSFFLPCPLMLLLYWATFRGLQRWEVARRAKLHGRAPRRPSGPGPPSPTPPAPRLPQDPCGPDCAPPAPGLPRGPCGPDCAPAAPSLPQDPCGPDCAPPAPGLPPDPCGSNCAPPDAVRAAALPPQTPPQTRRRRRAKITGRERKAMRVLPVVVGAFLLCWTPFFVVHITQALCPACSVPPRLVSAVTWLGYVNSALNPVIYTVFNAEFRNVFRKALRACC
endpointName: Ki (nM)
The reply should be a number in nM, with the unit left off.

Prompt: Enter recorded Ki with UniProt:P21917 for COc1cc(OC)c([N+](=O)[O-])cc1C(=O)N[C@H]1CCN(C2C3CCCC2CCC3)C1 (stereo partly shown) [Example 7] here.
Completion: 1.1

---

- assaySystem: D2 receptor (Rattus norvegicus)
- Sequence (P61169 whole entry): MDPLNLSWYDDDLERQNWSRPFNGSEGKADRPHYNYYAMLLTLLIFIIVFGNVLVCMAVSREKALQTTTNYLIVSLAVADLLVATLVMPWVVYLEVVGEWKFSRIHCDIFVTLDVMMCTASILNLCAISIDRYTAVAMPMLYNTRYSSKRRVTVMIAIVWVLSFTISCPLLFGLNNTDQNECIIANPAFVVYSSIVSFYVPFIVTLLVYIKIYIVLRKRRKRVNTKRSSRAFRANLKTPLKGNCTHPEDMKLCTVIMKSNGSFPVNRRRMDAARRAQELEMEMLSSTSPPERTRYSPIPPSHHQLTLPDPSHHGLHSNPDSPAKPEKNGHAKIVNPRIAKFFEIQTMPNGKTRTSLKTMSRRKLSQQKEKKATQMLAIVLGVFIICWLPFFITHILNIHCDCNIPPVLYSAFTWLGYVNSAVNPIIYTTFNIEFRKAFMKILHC
- assayOverview: receptor binding test, D2 receptor
- conditionSet: cloned receptor membrane, [125I]iodosulpride or [3H]YM-09151-2, 25° C., 1 hour
Catalogue of Ki values
Quote the value and follow it with the unit of measurement.

CNc1cc(C(=O)N[C@H]2CCN(C3C4CCCC3CCC4)C2)c(OC)cc1OC (stereo partly drawn) [Example 30] ... 34 nM
COc1cc(OC)c(C(=O)N[C@H]2CCN(C3C4CCCC3CCC4)C2)cc1C#N (stereo partly drawn) [Example 19] ... 350 nM

Now look at this entry.
Prompt: Report measured Ki; entry is COc1cc(OC)c([N+](=O)[O-])cc1C(=O)N[C@H]1CCN(C2C3CCCC2CCC3)C1 (stereo partly drawn) [Example 7]
Completion: 72 nM

---

Quick record: pKi, D3 receptor (Rattus norvegicus).
The read-out pKi is expressed as -log10 of concentration in moles per litre.

COc1cc(OC)c([N+](=O)[O-])cc1C(=O)N[C@H]1CCN(C2C3CCCC2CCC3)C1 (some centres unmarked) ... 8.82

Please find the next compound below.
Prompt: Retrieve pKi on D3 receptor (Rattus norvegicus); query COc1cc(OC)c(C(=O)N[C@H]2CCN(C3C4CCCC3CCC4)C2)cc1C#N (some centres unmarked)
Sequence (P19020 whole entry): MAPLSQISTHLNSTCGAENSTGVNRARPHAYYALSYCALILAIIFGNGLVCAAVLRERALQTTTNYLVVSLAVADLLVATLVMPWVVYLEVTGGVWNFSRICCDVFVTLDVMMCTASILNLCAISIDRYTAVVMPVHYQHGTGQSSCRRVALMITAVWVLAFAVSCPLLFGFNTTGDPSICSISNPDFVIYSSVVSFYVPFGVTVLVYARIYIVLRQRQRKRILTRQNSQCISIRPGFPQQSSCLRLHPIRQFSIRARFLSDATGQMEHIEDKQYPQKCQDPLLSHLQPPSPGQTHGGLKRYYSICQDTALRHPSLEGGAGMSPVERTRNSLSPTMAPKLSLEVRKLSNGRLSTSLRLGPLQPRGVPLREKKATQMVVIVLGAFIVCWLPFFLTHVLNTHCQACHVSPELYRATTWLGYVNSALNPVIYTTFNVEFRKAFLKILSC
Completion: 8.40
